Source: the Human Domainome abundance scans (Beltran et al. 2025)

As shown below, each of these variants has a reported abundance fitness value.
B1: DnaJ homolog subfamily C member 2, residues 451 to 503; numbered along this chain, Q99543 (parent)
chain: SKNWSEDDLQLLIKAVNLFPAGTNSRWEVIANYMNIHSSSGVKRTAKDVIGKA

# Variants of: B1
# method_summary: abundance fitness (aPCA) (normalised: wild type 0, dead -1); higher = more abundant; growth selection in yeast, the domain comes from the species named
# details: Homo sapiens

Noted for W27R : its abundance fitness reads -0.791

Noted for L11S : its abundance fitness reads -0.582

Noted for V29S : its abundance fitness reads 0.01

Noted for S39Q : its abundance fitness reads -0.102

Noted for S39M : its abundance fitness reads -0.122

Noted for S25D : its abundance fitness reads 0.062

Noted for T23R : its abundance fitness reads -0.649

Noted for L9F : its abundance fitness reads 0.065

Noted for S39R : its abundance fitness reads 0

Noted for T23L : its abundance fitness reads -0.221
